B1: C2CD2L (parent)
chain: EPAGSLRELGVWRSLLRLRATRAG

- Variants of: B1
- ASSAY OVERVIEW: protein stability index of a GFP-peptide fusion (GPS, HEK-293T) (PSI 1-6); higher = more stable;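 note: lentivirally expressed fusions sorted by FACS into six bins by GFP to DsRed ratio, PSI derived from sequencing read proportions per bin multiplied by bin number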
- EXPERIMENTAL CONTEXT: c terminus: a fixed tail appended
Give protein stability index for every item shown.

Exercise: If you can, please state the reported protein stability index value of P2N .
Key: 1.5

Exercise: Input T21C
Key: 2.07

Exercise: Same again, this time with R7C
Key: 1.74

Exercise: Then L9P ?
Key: 3.7

Exercise: Cool, now G24L
Key: 2.87

Exercise: Same question for L9S please.
Key: 3.16

Exercise: Here is the next variant: A23W
Key: 2.28

Exercise: Same read-out for L9I ?
Key: 1.71

Exercise: Now the same for W12Q
Key: 3.87

Exercise: // same read-out, input: A23Q
Key: 2.23

Exercise: Now consider L18I and answer again.
Key: 2.65

Exercise: What do you have for L15M ?
Key: 2.48

Exercise: Likewise for T21F ?
Key: 1.96

Exercise: Query R19Q next
Key: 1.98

Exercise: Also need L18D , thanks.
Key: 2.64

Exercise: Entry to check: G10L
Key: 2.02

Exercise: What do we get for R7F ?
Key: 1.14

Exercise: Here is the next variant: T21M
Key: 2.3

Exercise: Same lookup for R22P , please.
Key: 2.14

Exercise: Next up: S5R
Key: 2.03

Exercise: Thanks! And W12P ?
Key: 3.7

Exercise: Would you mind doing E1M as well?
Key: 1.91

Exercise: What do we get for L16I ?
Key: 2.36

Exercise: Next up: R17T
Key: 2.3

Exercise: Can you handle A23P next?
Key: 2.47

Exercise: Let us now turn to S14E
Key: 2.47

Exercise: Queued: G4L
Key: 1.97

Exercise: Here is the next variant: A3L
Key: 1.59

Exercise: Please answer likewise for R22E
Key: 2.25

Exercise: Now consider L18P and answer again.
Key: 3.97

Exercise: Request: E8R
Key: 2.06

Exercise: Queued: L15D
Key: 3.67

Exercise: Try the variant G10D
Key: 2.99

Exercise: Cool, now A20L
Key: 2.58

Exercise: Try this variant too: R17A
Key: 2.91

Exercise: Try this variant next: R19H
Key: 1.85

Exercise: Cool, now R13Q
Key: 2.56

Exercise: Consider next the variant S5W in the same way.
Key: 1.82

Exercise: Field entry: A23H
Key: 2.05

Exercise: // next record R7W
Key: 1.75

Exercise: Next record, please: G10S
Key: 3.18

Exercise: Can you handle G10W next?
Key: 1.67

Exercise: Record: L9F
Key: 3.97

Exercise: Please answer likewise for R19D
Key: 2.73

Exercise: Also L15T ?
Key: 2.5

Exercise: Similarly, W12T ?
Key: 4.02

Exercise: Likewise for S14G ?
Key: 1.42

Exercise: And the next one, R22F ?
Key: 2.1

Exercise: Can you handle E1F next?
Key: 2.41

Exercise: # repeat for V11H
Key: 3.11

Exercise: What do we get for L6K ?
Key: 2.36

Exercise: Check A20S too.
Key: 1.94

Exercise: Next variant: L15P
Key: 3.76

Exercise: Consider next the variant L9G in the same way.
Key: 3.69

Exercise: Would you mind doing R17E as well?
Key: 3.13

Exercise: Entry T21K please
Key: 2.97

Exercise: And for R17D ?
Key: 3.73

Exercise: And then R17G , what is it?
Key: 3.26

Exercise: Next variant: R19S
Key: 3.27

Exercise: Next variant up: L15E
Key: 4.27

Exercise: What do you get for P2T ?
Key: 1.93

Exercise: Moving on to L9Q
Key: 2.77

Exercise: What do we get for S5E ?
Key: 3.05

Exercise: // next record A20Q
Key: 2.04

Exercise: Would you mind doing R17I as well?
Key: 2.46

Exercise: # repeat for G4D
Key: 3.19

Exercise: What do you get for R22S ?
Key: 2.23

Exercise: Would you mind doing R13H as well?
Key: 2.86

Exercise: // same read-out, input: V11T
Key: 2.95

Exercise: Thanks! And W12C ?
Key: 3.48

Exercise: Another variant to look at: E1I
Key: 1.91

Exercise: What about this variant? S14M
Key: 2.41

Exercise: Please answer likewise for G4S
Key: 2.4

Exercise: Consider next the variant L15G in the same way.
Key: 3.51

Exercise: Same thing, different variant: R17F
Key: 1.95

Exercise: Consider next the variant L6M in the same way.
Key: 2.45

Exercise: Same thing, different variant: V11L
Key: 2.17

Exercise: Cool, now L16K
Key: 3.56

Exercise: Okay, and R22G ?
Key: 2.36

Exercise: Next variant up: R22D
Key: 2.3

Exercise: Thanks! And G24A ?
Key: 2.89
